- TEST_METHOD_NOTES: Cytotoxicity against human WI-38 cells assessed as inhibition of cell proliferation by MTT assay
- Type: toxicity, cell-based
Please go through the items and note down their IC50.

Fill blank: measured IC50 of the compound C[C@H](CCC(=O)OCc1ccc([N+](=O)[O-])cc1)[C@H]1CC[C@H]2[C@@H]3[C@H](O)C[C@@H]4C[C@H](O)CC[C@]4(C)[C@H]3CC[C@]12C is ____.
> 200 µM

Fill blank: measured IC50 of the compound COC(=O)[C@H](CCSC)NC(=O)CC[C@@H](C)[C@H]1CC[C@H]2[C@@H]3[C@H](O)C[C@@H]4C[C@H](O)CC[C@]4(C)[C@H]3C[C@H](O)[C@]12C is ____.
> 200 µM

Fill blank: measured IC50 of the compound COC(=O)[C@H](CCSC)NC(=O)CC[C@@H](C)[C@H]1CC[C@H]2[C@@H]3[C@H](O)C[C@@H]4C[C@H](O)CC[C@]4(C)[C@H]3CC[C@]12C is ____.
> 500 µM

Fill blank: measured IC50 of the compound C[C@H](CCC(=O)OCc1cccc(O)c1)[C@H]1CC[C@H]2[C@@H]3[C@@H](O)C[C@@H]4C[C@@H](O)CC[C@]4(C)[C@H]3CC[C@]12C is ____.
> 200 µM

Fill blank: measured IC50 of the compound Cc1ccc(COC(=O)CC[C@@H](C)[C@H]2CC[C@H]3[C@@H]4[C@H](O)C[C@@H]5C[C@H](O)CC[C@]5(C)[C@H]4C[C@H](O)[C@]23C)cc1 is ____.
> 500 µM

* * *

- System: HCT-116
- TEST_METHOD_NOTES: Induction of apoptosis in human HCT-116 cells assessed as retraction of the nucleus at 30 micromol/L incubated for 48 hrs by Giemsa staining based fluorescence microscopy
- Type: functional, cell-based
- CONDITION_SET: dose 30.0 µmol/L
Activity calls are given as the source filed them. The calls are words filed in the database; no cut-off is given here.
QUANTITY_MEASURED: Activity

C[C@H](CCC(=O)OCc1ccc([N+](=O)[O-])cc1)[C@H]1CC[C@H]2[C@@H]3[C@H](O)C[C@@H]4C[C@H](O)CC[C@]4(C)[C@H]3C[C@H](O)[C@]12C    Active
COC(=O)c1ccc(COC(=O)CC[C@@H](C)[C@H]2CC[C@H]3[C@@H]4[C@H](O)C[C@@H]5C[C@H](O)CC[C@]5(C)[C@H]4CC[C@]23C)cc1    Active
Cc1ccc(COC(=O)CC[C@@H](C)[C@H]2CC[C@H]3[C@@H]4[C@H](O)C[C@@H]5C[C@H](O)CC[C@]5(C)[C@H]4C[C@H](O)[C@]23C)cc1    Active

* * *

- Test system: HCT-116
- TEST_METHOD_NOTES: Induction of apoptosis in human HCT-116 cells assessed as necrotic cells at 30 micromol/L incubated for 48 hrs by annexin V-FITC and propidium iodide staining based flow cytometry analysis (reference value: 0.88%)
- Format: functional
- CONDITION_SET: dose 30 µmol/L, at 30 µM
Assign class by Activity: not lower than 0.9% means 1; lower than 0.9% means -1.

Decide: Activity of O=c1[nH]cc(F)c(=O)[nH]1 >= 0.9%?
-1

Decide: Activity of COC(=O)[C@H](CCSC)NC(=O)CC[C@@H](C)[C@H]1CC[C@H]2[C@@H]3[C@H](O)C[C@@H]4C[C@H](O)CC[C@]4(C)[C@H]3CC[C@]12C >= 0.9%?
-1

Decide: Activity of COc1cc(COC(=O)CC[C@@H](C)[C@H]2CC[C@H]3[C@@H]4[C@H](O)C[C@@H]5C[C@H](O)CC[C@]5(C)[C@H]4C[C@H](O)[C@]23C)cc(OC)c1 >= 0.9%?
1

Decide: Activity of COC(=O)c1ccc(COC(=O)CC[C@@H](C)[C@H]2CC[C@H]3[C@@H]4[C@H](O)C[C@@H]5C[C@H](O)CC[C@]5(C)[C@H]4C[C@H](O)[C@]23C)cc1 >= 0.9%?
1

Decide: Activity of C[C@H](CCC(=O)OCc1ccc([N+](=O)[O-])cc1)[C@H]1CC[C@H]2[C@@H]3[C@H](O)C[C@@H]4C[C@H](O)CC[C@]4(C)[C@H]3C[C@H](O)[C@]12C >= 0.9%?
1

Decide: Activity of Cc1ccc(COC(=O)CC[C@@H](C)[C@H]2CC[C@H]3[C@@H]4[C@H](O)C[C@@H]5C[C@H](O)CC[C@]5(C)[C@H]4C[C@H](O)[C@]23C)cc1 >= 0.9%?
-1

* * *

- Test system: RKO
- TEST_METHOD_NOTES: Anticancer activity against human RKO cells assessed as inhibition of cell proliferation by MTT assay
- Assay type: functional, cell-based
QUANTITY_MEASURED: pIC50
Give only the number. pIC50 is defined as minus log10 of concentration in molar units.

Fill blank: measured pIC50 of the compound COC(=O)c1ccc(COC(=O)CC[C@@H](C)[C@H]2CC[C@H]3[C@@H]4[C@H](O)C[C@@H]5C[C@H](O)CC[C@]5(C)[C@H]4CC[C@]23C)cc1 is ____.
4.35

Fill blank: measured pIC50 of the compound C[C@H](CCC(=O)OCc1cc(O)cc(O)c1)[C@H]1CC[C@H]2[C@@H]3CC[C@@H]4C[C@H](O)CC[C@]4(C)[C@H]3CC[C@]12C is ____.
4.37

Fill blank: measured pIC50 of the compound CC(=O)Oc1ccc(OC(=O)CC[C@@H](C)[C@H]2CC[C@H]3[C@@H]4[C@H](O)C[C@@H]5C[C@H](O)CC[C@]5(C)[C@H]4CC[C@]23C)cc1 is ____.
3.85

Fill blank: measured pIC50 of the compound C[C@H](CCC(=O)OCc1ccc([N+](=O)[O-])cc1)[C@H]1CC[C@H]2[C@@H]3[C@H](O)C[C@@H]4C[C@H](O)CC[C@]4(C)[C@H]3C[C@H](O)[C@]12C is ____.
4.53

* * *

- Test system: SW480
- TEST_METHOD_NOTES: Anticancer activity against human SW480 cells assessed as inhibition of cell proliferation by MTT assay
- Assay type: functional, cell-based
QUANTITY_MEASURED: IC50 (µM)
State the answer as a number, implicitly in µM.

Fill blank: measured IC50 of the molecule C[C@H](CCC(=O)OCc1ccc([N+](=O)[O-])cc1)[C@H]1CC[C@H]2[C@@H]3[C@H](O)C[C@@H]4C[C@H](O)CC[C@]4(C)[C@H]3CC[C@]12C is ____.
44.1

Fill blank: measured IC50 of the molecule C[C@H](CCC(=O)OCc1ccc([N+](=O)[O-])cc1)[C@H]1CC[C@H]2[C@@H]3[C@H](O)C[C@@H]4C[C@H](O)CC[C@]4(C)[C@H]3C[C@H](O)[C@]12C is ____.
31.8

Fill blank: measured IC50 of the molecule C[C@H](CCC(=O)OCc1cc(O)cc(O)c1)[C@H]1CC[C@H]2[C@@H]3CC[C@@H]4C[C@H](O)CC[C@]4(C)[C@H]3CC[C@]12C is ____.
134

Fill blank: measured IC50 of the molecule O=c1[nH]cc(F)c(=O)[nH]1 [FLUOROURACIL] is ____.
21.9

* * *

Please go through the items and note down their IC50.
- TEST_METHOD_NOTES: Cytotoxicity against human WI-38 cells assessed as inhibition of cell proliferation by MTT assay
- Assay type: toxicity, cell-based

Fill blank: measured IC50 of the compound C[C@H](CCC(=O)OCc1cc(O)cc(O)c1)[C@H]1CC[C@H]2[C@@H]3CC[C@@H]4C[C@H](O)CC[C@]4(C)[C@H]3CC[C@]12C is ____.
> 200 µM

Fill blank: measured IC50 of the compound C[C@H](CCC(=O)OCc1cccc(O)c1)[C@H]1CC[C@H]2[C@@H]3[C@H](O)C[C@@H]4C[C@H](O)CC[C@]4(C)[C@H]3C[C@H](O)[C@]12C is ____.
> 200 µM

Fill blank: measured IC50 of the compound C[C@H](CCC(=O)NCc1ccccc1O)[C@H]1CC[C@H]2[C@@H]3[C@H](O)C[C@@H]4C[C@H](O)CC[C@]4(C)[C@H]3C[C@H](O)[C@]12C is ____.
> 200 µM

Fill blank: measured IC50 of the compound COc1cc(COC(=O)CC[C@@H](C)[C@H]2CC[C@H]3[C@@H]4[C@H](O)C[C@@H]5C[C@H](O)CC[C@]5(C)[C@H]4C[C@H](O)[C@]23C)cc(OC)c1 is ____.
> 500 µM

Fill blank: measured IC50 of the compound COC(=O)c1ccc(COC(=O)CC[C@@H](C)[C@H]2CC[C@H]3[C@@H]4[C@H](O)C[C@@H]5C[C@H](O)CC[C@]5(C)[C@H]4CC[C@]23C)cc1 is ____.
> 500 µM
